The reported measurements were obtained from patent US20240391882A1.

Answer each item with its documented pIC50.
System: pAKT in T47D (PI3Kα H1047R mutant) cells
procedure details: Inhibition of pAKT (alphaLISA Surefire Ultra AKT 1/2/3 pS473) in T47D cells
Format: cell-based
run conditions: Homo sapiens; T47D (PI3Kα H1047R mutant) cells, 24 hr compound incubation, alphaLISA pS473; read-out: T47D (H1047R) pAKT 24 hr (IC50)
Numbers only, as −log10 of the molar value.

>>> df
                                   molecule  readout_number
0  COC[C@@H]1CN(c2nc3c([C@@H](C)Nc4ccc(Cl)nc4C(=O)O)cc(C)cc3nc2C#N)CCO1 [Example 236A]            9.05
1  Cc1cc([C@@H](C)Nc2ccccc2C(=O)O)c2nc(NC[C@@]3(C)CC3(F)F)c(C#N)nc2c1 (single isomer, unassigned) [Example 75B]            7.41

The following molecules each have a reported value; give each one's pIC50.
1. CO[C@@H](C)C1CCN(c2nc3c([C@@H](C)Nc4ccc(Cl)nc4C(=O)O)cc(C)cc3nc2C#N)CC1 (single isomer, unassigned) [Example 195B]
2. Cc1cc([C@@H](C)Nc2ccc(Cl)nc2C(=O)O)c2nc(C3CC3)c(C#N)nc2c1
3. C[C@H](Nc1ccccc1C(=O)O)c1cc(Cl)cc2nc(C#N)c(N3CCC(F)(F)CC3)nc12
4. C[C@@H](Nc1ccc(Cl)nc1C(=O)O)c1cc(C2CC2)cc2nc(C#N)c(N3CCC(F)(F)CC3)nc12

Reply:
1. 9.43
2. 8.70
3. 6.93
4. 8.37

For every item in the list below, what is its measured pIC50?
1. Cc1cc([C@@H](C)Nc2ccc(Cl)nc2C(=O)O)c2nc(N3CC4(CC[C@@H]4F)C3)c(C#N)nc2c1 (single isomer, unassigned) [Example 257A]
2. Cc1cc([C@@H](C)Nc2ccc(Cl)nc2C(=O)O)c2nc(N3CCC(F)(F)[C@@H](CO)C3)c(C#N)nc2c1 (single isomer, unassigned) [Example 234A]
3. Cc1cc([C@@H](C)Nc2ccc(Cl)nc2C(=O)O)c2nc(N3CCC(n4cccn4)CC3)c(C#N)nc2c1

Reply:
[8.32, 8.55, 9.15]

====

Tested on: pAKT in T47D (PI3Kα H1047R mutant) cells
procedure details: Inhibition of pAKT (alphaLISA Surefire Ultra AKT 1/2/3 pS473) in T47D cells
Format: cell-based
run conditions: Homo sapiens, T47D, 24 h, read-out: T47D (H1047R) pAKT 24 hr (IC50)
quantity: IC50
Returns: string containing the number followed by the unit.

>>> df
                                   compound  result
0  Cc1cc([C@@H](C)Nc2ccccc2C(=O)O)c2nc(N3Cc4ccccc4C3)c(C#N)nc2c1 [Example 6]    5 nM

# evaluate next
Ask: Need IC50 of Cc1cc([C@@H](C)Nc2ccc(Cl)nc2C(=O)O)c2nc(N3CCC(F)(F)CC3)c(C#N)nc2c1 [Example 5] , thanks.
Reply: 0.8 nM

====

Test system: pAKT in T47D (PI3Kα H1047R mutant) cells
procedure details: Inhibition of pAKT (alphaLISA Surefire Ultra AKT 1/2/3 pS473) in T47D cells
Format: cell-based
run conditions: Homo sapiens; T47D (PI3Kα H1047R mutant) cells, 24 hr compound incubation, alphaLISA pS473; read-out: T47D (H1047R) pAKT 24 hr (IC50)
quantity: log10 IC50 (log10 of the value in nM)
Base-10 log of IC50, unit nM.

Some compounds with known log10 IC50 results, for comparison:
>>> print(df.to_string())
                                   compound    quantity  readout_number
0  Cc1cc([C@@H](C)Nc2ccc(Cl)nc2C(=O)O)c2nc(N3CCN(c4cc(C)on4)CC3)c(C#N)nc2c1  log10 IC50           -0.57
1  Cc1cc([C@@H](C)Nc2ccccc2C(=O)O)c2nc(N3CCN(C(=O)C[C@@H]4CC4(F)F)CC3)c(C#N)nc2c1 (single isomer, unassigned)  log10 IC50            0.26
2  Cc1cc([C@@H](C)Nc2ccc(Cl)nc2C(=O)O)c2nc(N3CCc4cnccc4C3)c(C#N)nc2c1  log10 IC50           -0.35
3  Cc1cc(C(C)Nc2ccccc2C(=O)O)c2nc(N3Cc4ccccc4C3)c(C#N)nc2c1 (stereo not drawn)  log10 IC50            1.26
4  Cc1cc([C@@H](C)Nc2ccc(Cl)nc2C(=O)O)c2nc(N3CC4CCC4(F)C3)c(C#N)nc2c1 (single isomer, unassigned) [Example 244B]  log10 IC50            0.11

Now consider the entry below.
Ask: Any idea what its log10 IC50 is? The compound is COC[C@@]1(F)CCN(c2nc3c([C@@H](C)Nc4ccc(Cl)nc4C(=O)O)cc(C)cc3nc2C#N)C1 (single isomer, unassigned)
Reply: 0.32

====

Could you please report measured pIC50 for the items listed next?
Test system: pAKT in T47D (PI3Kα H1047R mutant) cells
procedure details: Inhibition of pAKT (alphaLISA Surefire Ultra AKT 1/2/3 pS473) in T47D cells
Format: cell-based
run conditions: Homo sapiens; T47D (PI3Kα H1047R mutant) cells, 24 hr compound incubation, alphaLISA pS473; read-out: T47D (H1047R) pAKT 24 hr (IC50)
Answers are plain numbers, as −log10 of the molar value.

Examples from the recorded data:
In [3]: df
Out[3]:
                                   compound  quantity  readout_number
0  Cc1cc([C@@H](C)Nc2ccc(Cl)nc2C(=O)O)c2nc(N3C[C@H](F)[C@@H](F)C3)c(C#N)nc2c1     pIC50            9.30
1  Cc1cc([C@@H](C)Nc2ccc(Cl)nc2C(=O)O)c2nc(N3C[C@H]4CO[C@H](C4)C3)c(C#N)nc2c1 (single isomer, unassigned) [Example 243B]     pIC50            9.28

Query compound follows.
Ask: Entry Cc1cc([C@@H](C)Nc2ccc(Cl)nc2C(=O)O)c2nc(N3C[C@@H]4[C@@H](CO)[C@@H]4C3)c(C#N)nc2c1 : reported pIC50 = ?
Reply: 8.34

====

System: pAKT in T47D (PI3Kα H1047R mutant) cells
procedure details: Inhibition of pAKT (alphaLISA Surefire Ultra AKT 1/2/3 pS473) in T47D cells
Type: cell-based
run conditions: Homo sapiens; T47D (PI3Kα H1047R mutant) cells, 24 hr compound incubation, alphaLISA pS473; read-out: T47D (H1047R) pAKT 24 hr (IC50)
quantity: pIC50
Give bare numbers, as −log10 of the molar value.

In [3]: df
Out[3]:
                                   compound  quantity  readout_number
0  Cc1cc([C@@H](C)Nc2ccc(Cl)nc2C(=O)O)c2nc(N3CCN(c4cc(C)no4)CC3)c(C#N)nc2c1     pIC50            8.92

Batch request: pIC50 per item, same order as input.
1. Cc1cc([C@@H](C)Nc2ccc(Cl)nc2C(=O)O)c2nc(N3CCC(F)(F)CC3)c(C)nc2c1
2. Cc1cc([C@@H](C)Nc2ccc(Cl)nc2C(=O)O)c2nc(N3C[C@H](F)C[C@@H]3C)c(C#N)nc2c1 [Example 246B]
3. Cc1cc([C@@H](C)Nc2ccc(Cl)nc2C(=O)O)c2nc(N3CC[C@@]4(CCCO4)C3)c(C#N)nc2c1 (single isomer, unassigned) [Example 253A]
4. Cc1cc([C@@H](C)Nc2ccc(Cl)nc2C(=O)O)c2nc(N3CCC(n4cc(C(F)(F)F)cn4)CC3)c(C#N)nc2c1
5. Cc1cc([C@@H](C)Nc2ccc(Cl)nc2C(=O)O)c2nc(C3CCOCC3)c(C#N)nc2c1
6. Cc1cc([C@@H](C)Nc2ccc(Cl)nc2C(=O)O)c2nc(N3C[C@H]4COC[C@@H]4C3)c(C#N)nc2c1 (single isomer, unassigned) [Example 229A]
7. Cc1cc([C@@H](C)Nc2ccc(Cl)nc2C(=O)O)c2nc(N3CCO[C@@H](CO)C3)c(C#N)nc2c1 [Example 235B]

Reply:
[8.51, 8.74, 8.25, 8.68, 9.77, 9.26, 8.74]

For every listed record, write down its pIC50.
1. C[C@@H](Nc1ccc(Cl)nc1C(=O)O)c1cc(C(F)F)cc2nc(C#N)c(N3CCOCC3)nc12
2. COC[C@H]1[C@H]2CN(c3nc4c([C@@H](C)Nc5ccc(Cl)nc5C(=O)O)cc(C)cc4nc3C#N)C[C@@H]12
3. Cc1cc([C@@H](C)Nc2ccc(Cl)nc2C(=O)O)c2nc(N3CC4C[C@@]4(C(F)(F)F)C3)c(C#N)nc2c1 (single isomer, unassigned) [Example 43A]
4. COC[C@@H]1CN(c2nc3c([C@@H](C)Nc4ccc(Cl)nc4C(=O)O)cc(C)cc3nc2C#N)CC1(F)F (single isomer, unassigned) [Example 211A]
5. Cc1cc([C@@H](C)Nc2ccc(Cl)nc2C(=O)O)c2nc(N3CCC(N4CCCCC4=O)CC3)c(C#N)nc2c1
6. Cc1cc([C@@H](C)Nc2ccc(Cl)nc2C(=O)O)c2nc(N3C[C@H]4C[C@@H]3CC4(F)F)c(C#N)nc2c1 (single isomer, unassigned)

Reply:
1. 8.89
2. 9.04
3. 8.32
4. 8.24
5. 8.85
6. 8.12

Give one value of pIC50 per listed compound.
1. Cc1cc([C@H](C)Nc2ccccc2C(=O)O)c2nc(N3CCC(F)(F)CC3)c(C#N)nc2c1
2. Cc1cc([C@@H](C)Nc2ccc(Cl)nc2C(=O)O)c2nc(N3CC[C@H](F)C3)c(C#N)nc2c1
3. Cc1cc([C@@H](C)Nc2ccc(Cl)nc2C(=O)O)c2nc(N3CCC(c4ccnn4C)CC3)c(C#N)nc2c1
4. Cc1cc([C@@H](C)Nc2ccccc2C(=O)O)c2nc(N3CC(C)(C)C3)c(C#N)nc2c1
5. Cc1cc([C@@H](C)Nc2ccc(Cl)nc2C(=O)O)c2nc(N3C4CCC3COC4)c(C#N)nc2c1

Reply:
6.07
8.77
9.10
7.67
8.62

Hi, could you look up pIC50 for each item in my list?
1. Cc1cc([C@@H](C)Nc2ccc(Cl)nc2C(=O)O)c2nc(N3CCC4(CC3)C(F)(F)C4(F)F)c(C#N)nc2c1
2. C[C@@H](Nc1ccc(Cl)nc1C(=O)O)c1cc(F)cc2nc(C#N)c(N3CCC(F)(F)CC3)nc12
3. Cc1cc([C@@H](C)Nc2ccc(Cl)nc2C(=O)O)c2nc(N3CCC4(CC3)COC4)c(C#N)nc2c1
4. Cc1cc([C@@H](C)Nc2ccc(Cl)nc2C(=O)O)c2nc(N3CCO[C@H](C(F)(F)F)C3)c(C#N)nc2c1 [Example 190A]
5. Cc1cc([C@@H](C)Nc2ccccc2C(=O)O)c2nc(N3CCC(F)(F)CC3)c(C#N)nc2c1
6. Cc1cc([C@@H](C)Nc2ccc(Cl)nc2C(=O)O)c2nc(NCCC(F)(F)F)c(C#N)nc2c1

Reply:
8.35
8.74
8.77
8.36
8.02
8.72

Ask: # lookup: pIC50 of Cc1cc([C@@H](C)Nc2ccc(Cl)nc2C(=O)O)c2nc(N3CCC4(COC4)C3)c(C#N)nc2c1
Reply: 8.80
